Data credit: paper PMC9482650

- MEASUREMENT_TARGET: MAGI3_2, Q5TCQ9
- Sequence (Q5TCQ9 398-503): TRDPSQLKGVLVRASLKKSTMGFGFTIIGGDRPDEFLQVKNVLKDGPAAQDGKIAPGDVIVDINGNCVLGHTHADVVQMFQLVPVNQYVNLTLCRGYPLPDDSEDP
- TEST: holdup assay
- Design: key: below the threshold = too weak to quantify, mostly under pKd 3.1 to 4
- CONDITION_INFO: plain residues with an end cap or a label only (N-terminal biotin on a linker: ado-ado)
In this section, each of the binders is paired with its reported pKd.
Answer with the value's number alone.

Example entries and their recorded answers appear below.
DGVNEKVSCV [HTR2A, P28223]	4.47
GIKKITSTAL [RPS6KA3, P51812]	4.08

Please look up its pKd: NISYRRESAI [KCNJ4, P48050] 4.9

Try PPGKHLVTEV [KCNA7, Q96RP8] next. 4.71
